# target.under.test: T1, Human CD47-C33G (human, UniProt Q08722 19-135)
# T1 construct: also called CD47 mutein with C33G mutation
# assay.details: SPR, IgG captured, CD47 in flow; exp 2;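 note: IgG from HEK293 cell supernatants tested by SPR on a BIAcore T200, C33G mutein prevents IgV homodimers for monovalent affinity, KD derived from association and dissociation rates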
endpoint.label: koff (s⁻¹)

{"columns": ["binder", "value.unit", "experimental.value"],
 "data": [
  ["108VH5.M12 / 108VL1.M5 (antibody, human IgG4 S228P, kappa, V domains shown, Full-length IgG4 (S228P), kappa; also called VH5.M12 VL1.M5) VH: EVQLVQSGAEVKKPGASVKVSCKASGYTFTHHWMHWVRQAPGQGLEWMGMIDASDSETRYAQKFQGRVTMTRDTSTSTVYMELSSLRSEDTAVYYCARLGRYYFDYWGQGTLVTVSS VL: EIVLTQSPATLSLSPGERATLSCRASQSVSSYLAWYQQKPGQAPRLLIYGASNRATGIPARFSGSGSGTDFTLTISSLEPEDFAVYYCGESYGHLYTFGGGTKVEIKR", "s⁻¹", 0.0041]
]}
